# Target: CYP2B6 (Homo sapiens)
# Construct: from tissue; host or cells: human liver microsomes (pooled in the time-dependent assay)
# Sequence (P20813 whole entry): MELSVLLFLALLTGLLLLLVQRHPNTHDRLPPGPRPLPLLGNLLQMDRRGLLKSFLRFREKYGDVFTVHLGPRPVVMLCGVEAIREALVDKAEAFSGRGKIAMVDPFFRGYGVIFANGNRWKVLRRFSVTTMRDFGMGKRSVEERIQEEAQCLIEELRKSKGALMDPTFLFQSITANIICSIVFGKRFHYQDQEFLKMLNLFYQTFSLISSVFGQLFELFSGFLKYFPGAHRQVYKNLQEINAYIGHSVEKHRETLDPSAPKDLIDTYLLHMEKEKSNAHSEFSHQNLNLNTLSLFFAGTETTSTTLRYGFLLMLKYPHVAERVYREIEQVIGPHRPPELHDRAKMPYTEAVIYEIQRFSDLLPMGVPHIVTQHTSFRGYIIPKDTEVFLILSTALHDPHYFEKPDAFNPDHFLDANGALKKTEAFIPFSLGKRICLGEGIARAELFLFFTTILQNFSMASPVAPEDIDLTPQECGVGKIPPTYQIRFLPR
# Experimental Details: direct inhibition of CYP450 in human liver microsomes
# Assay type: in vitro ADME
# Test Settings: 10 uM, % of non-inhibited control, read-out: CYP2B6 T0 % activity
# Description: Direct inhibition: […] A Perspective of the Pharmaceutical Research and Manufacturers of America”, Drug Metabolism and Disposition, 37 (7): 1355, 2009). For 3A4, the % activity was measured using both midazolam and testosterone as probes. Each compound at 3, 10, and 50 μM was incubated with HLM, NADPH and CYP isoenzyme specific probe substrates at 37° C. Inhibition of the probe substrate metabolism was quantified using LC/MS/MS. […]
Quantity Name: activity at 10 µM (%)
Please state the figure in %; there is no need to write the unit.

Incoming: activity at 10 µM lookup needed for `Cn1cncc1-c1ccnc(C(=O)N[C@H]2CC[C@H](O)CC2)n1` , thanks.
Outgoing: 101

Incoming: Could you do the same for `CO[C@H]1CC[C@H](NC(=O)c2nccc(-n3ccnc3)n2)CC1` , please?
Outgoing: 98

Incoming: Could you do the same for `Cn1cncc1-c1ccnc(C(=O)Nc2ccc(C(C)(C)O)nc2)n1` , please?
Outgoing: 99

Incoming: Could you do the same for `CO[C@H]1CC[C@H](NC(=O)c2cc(C3(C)COC3)nc(-c3cncn3C)n2)CC1` , please?
Outgoing: 91

Incoming: Could you do the same for [2H]c1nc([2H])n(-c2nc(C)cc(C(=O)N[C@H]3CC[C@H](OCCOC)CC3)n2)c1[2H] [Comparator Compound A, reference compound] , please?
Outgoing: 98

Incoming: Could you do the same for `CO[C@H]1CC[C@H](NC(=O)c2cc(C3CCOCC3)nc(-c3cncn3C)n2)CC1` , please?
Outgoing: 80

Incoming: Could you do the same for `CC(C)(O)c1ccc(NC(=O)c2nccc(-n3ccnc3)n2)cn1` , please?
Outgoing: 98

Incoming: Could you do the same for `CO[C@H]1CC[C@H](NC(=O)c2cc(C3CCC(F)(F)CC3)nc(-c3cncn3C)n2)CC1` , please?
Outgoing: 95
